System: Fusarium oxysporum
Assay: Antimicrobial activity against Fusarium oxysporum NCL5 by broth microdilution method
Type: functional, organism-based
Attribute measured: MIC

Entry `C#CCOC(=O)CC[C@@H](C)[C@H]1CC[C@H]2[C@@H]3CC[C@@H]4C[C@H](O)CC[C@]4(C)[C@H]3C[C@H](O)[C@]12C` ; assay system Fusarium oxysporum; MIC recorded at > 128 µg/mL

Entry COc1ccc(N2C(=O)C(N=[N+]=[N-])C2c2ccccc2)cc1 (racemic) ; assay system Fusarium oxysporum; MIC recorded at > 128 µg/mL

Entry `C#CCOC(=O)CC[C@@H](C)[C@H]1CC[C@H]2[C@@H]3[C@H](O)C[C@@H]4C[C@H](O)CC[C@]4(C)[C@H]3C[C@H](O)[C@]12C` ; assay system Fusarium oxysporum; MIC recorded at > 128 µg/mL

Entry C[C@@H]1[C@H](O)[C@@H](C)/C=C/C=C/C=C/C=C/C=C/C=C/C=C/[C@H](O[C@@H]2O[C@H](C)[C@@H](O)[C@H](N)[C@@H]2O)C[C@@H]2O[C@](O)(C[C@@H](O)C[C@@H](O)[C@H](O)CC[C@@H](O)C[C@@H](O)CC(=O)O[C@H]1C)C[C@H](O)[C@H]2C(=O)O (stereo in doubt) [AMPHOTERICIN B] ; assay system Fusarium oxysporum; MIC recorded at 16 µg/mL

---

Tested on: Escherichia coli
Test: Antimicrobial activity against Escherichia coli NCIM2574 by broth microdilution method
Type: functional, organism-based
Each entry below lists one item and its recorded IC50 value.
Report the value in µg/mL with no unit label.

The examples below pair each entry with its known result.
{"Compound": "COc1ccc(N2C(=O)C(N=[N+]=[N-])C2c2ccc(Cl)cc2)cc1 (racemic)", "IC50, µg/mL": 128}
{"Compound": "CC1(C)S[C@@H]2[C@H](NC(=O)[C@H](N)c3ccccc3)C(=O)N2[C@H]1C(=O)O", "IC50, µg/mL": 1}
{"Compound": "C#CCNC(=O)CC[C@@H](C)[C@H]1CC[C@H]2[C@@H]3[C@H](O)C[C@@H]4C[C@H](O)CC[C@]4(C)[C@H]3C[C@H](O)[C@]12C", "IC50, µg/mL": 128}
{"Compound": "CN(C)[C@@H]1C(O)=C(C(N)=O)C(=O)[C@@]2(O)C(O)=C3C(=O)c4c(O)cccc4[C@@](C)(O)[C@H]3C[C@@H]12", "IC50, µg/mL": 4}
{"Compound": "C#CCOC(=O)CC[C@@H](C)[C@H]1CC[C@H]2[C@@H]3[C@H](O)C[C@@H]4C[C@H](O)CC[C@]4(C)[C@H]3C[C@H](O)[C@]12C", "IC50, µg/mL": 128}
{"Compound": "COc1ccc(N2C(=O)C(N=[N+]=[N-])C2c2ccccc2)cc1 (racemic)", "IC50, µg/mL": 64}

Sure, the documented IC50 for `C#CCOC(=O)CC[C@@H](C)[C@H]1CC[C@H]2[C@@H]3CC[C@@H]4C[C@H](O)CC[C@]4(C)[C@H]3C[C@H](O)[C@]12C` is 128

---

Each entry below lists one item and its recorded MIC value.
Tested on: Fusarium oxysporum
Assay: Antimicrobial activity against Fusarium oxysporum NCL5 by broth microdilution method
Assay type: functional, organism-based

The examples below pair each entry with its known result.
{"Compound": "COc1ccc(N2C(=O)C(N=[N+]=[N-])C2c2ccc(Cl)cc2)cc1 (racemic)", "Measurement target": "Fusarium oxysporum", "MIC": "> 128 µg/mL"}
{"Compound": "OC(Cn1cncn1)(Cn1cncn1)c1ccc(F)cc1F", "Measurement target": "Fusarium oxysporum", "MIC": "8 µg/mL"}
{"Compound": "C#CCNC(=O)CC[C@@H](C)[C@H]1CC[C@H]2[C@@H]3[C@H](O)C[C@@H]4C[C@H](O)CC[C@]4(C)[C@H]3C[C@H](O)[C@]12C", "Measurement target": "Fusarium oxysporum", "MIC": "> 128 µg/mL"}

# next compound below
Sure, the documented MIC for `C#CCNC(=O)CC[C@@H](C)[C@H]1CC[C@H]2[C@@H]3CC[C@@H]4C[C@H](O)CC[C@]4(C)[C@H]3C[C@H](O)[C@]12C` is > 128 µg/mL
